Data credit: ChEMBL document CHEMBL1128496

assay: Anti-HIV activity evaluated by measuring the growth inhibition of acutely infected H9 lymphocytes as therapeutic index.; parameters: species or system Human immunodeficiency virus 1; conditions: human immunodeficiency virus 1, H9 lymphocytes acutely infected with HIV-1; read-out: TI
Assign selectivity ratio to each entry below.

GET /value?item= "COC(=O)c1cc(OC(=O)c2ccccc2)c(OC(=O)c2ccccc2)c(OC)c1-c1c(OC)c(OC(=O)c2ccccc2)c(OC(=O)c2ccccc2)c(Br)c1C(=O)OC" &field=selectivity ratio returns 1

GET /value?item= "COC(=O)c1c(Br)c(OC)c2c(c1-c1c3c(c(OC)c(Br)c1C(=O)OC)OCO3)OCO2" &field=selectivity ratio returns > 480

GET /value?item= "CCOC(=O)c1c(Br)c(OC)c2c(c1-c1c3c(c(OC)c(Br)c1C(=O)O)OCO3)OCO2" &field=selectivity ratio returns > 1.7

GET /value?item= COC(=O)c1cc(OC)c2c(c1-c1c(C(=O)OC)cc(OC)c3c1OCO3)OCO2 [BIFENDATE] &field=selectivity ratio returns > 20

GET /value?item= "COc1c(Br)c(C(=O)[O-])c(-c2c3c(c(OC)c(Br)c2C(=O)[O-])OCO3)c2c1OCO2.[Na+].[Na+]" &field=selectivity ratio returns 1
